These measurements were taken from patent US10351525B2.

Measured IC50 on IMP-1 (Serratia marcescens, UniProt P52699) follows.
Sequence (P52699 19-246 limits assumed): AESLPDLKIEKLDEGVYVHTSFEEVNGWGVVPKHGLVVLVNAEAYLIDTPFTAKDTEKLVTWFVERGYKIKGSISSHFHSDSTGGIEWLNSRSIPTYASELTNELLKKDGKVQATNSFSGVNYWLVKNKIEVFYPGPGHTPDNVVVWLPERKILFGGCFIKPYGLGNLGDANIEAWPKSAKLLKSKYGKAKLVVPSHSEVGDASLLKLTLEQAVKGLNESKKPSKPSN
Could you give me the number in nM? Just the number is fine.

CN1CCN(NC(=O)CN2C(=O)C(=Cc3c(Cl)ccc(Cl)c3Cl)SC2=S)CC1 (mixture of isomers)    175

# next molecule below
Exam item: What does the data say about its IC50? Entry: O=C(O)C(S)=Cc1c(Cl)ccc(Cl)c1Cl (racemic) [ML302F]
Marked response: 2.88

* * *

molecular target: VIM-2 (Escherichia coli); construct: made in house; host or cells: Escherichia coli; test: MBL screening assay (IC50), VIM-2; assay type: biochemical; conditions: IC50 value against VIM-2 obtained using this assay, VIM-2
MEASURE: IC50 (nM)
Could you give me the number in nM? Just the number is fine.

Exam item: What does the data say about its IC50? Entry: CN1CCN(NC(=O)CN2C(=O)C(=Cc3c(Cl)ccc(Cl)c3Cl)SC2=S)CC1 (mixture of isomers) [ML302]
Marked response: 498
